Tested on: woolly cupgrass (Eriochloa villosa)
Assay: Test C pre-/postemergence: woolly cupgrass
Assay type: in vivo
Conditions: Postemergence, 250 g ai/ha; scale 0 to 100
Readout Name: Plant response rating, Cupgrass, Woolly
Respond numerically, and do not add a unit to the figure.

Examples from the recorded data:
INSERT INTO results (compound, assayed_system, readout_name, recorded_number) VALUES
  ('Cc1nn(-c2ccnc(Cl)c2)nc1Cc1ccnc(C(F)(F)F)c1 [Compound 141]', 'woolly cupgrass (Eriochloa villosa)', 'Plant response rating, Cupgrass, Woolly', 45),
  ('Cc1nn(-c2ccc(C(F)(F)F)cn2)nc1Cc1cccc(C(F)(F)F)c1 [Compound 106]', 'woolly cupgrass (Eriochloa villosa)', 'Plant response rating, Cupgrass, Woolly', 50),
  ('CCOc1nn(-c2ccc(F)cc2)nc1Cc1ccnc(C(F)(F)F)c1 [Compound 196]', 'woolly cupgrass (Eriochloa villosa)', 'Plant response rating, Cupgrass, Woolly', 90);

Consider now this further compound.
Find the recorded Plant response rating, Cupgrass, Woolly belonging to Fc1ccc(-n2nc(Cc3ccnc(C(F)(F)F)c3)c(OC(F)F)n2)cc1 [Compound 25] and report it.
45

====

Tested on: ryegrass, Italian (Italian ryegrass, Lolium multiflorum)
Assay: Test C pre-/postemergence: ryegrass, Italian
Format: in vivo
Conditions: Preemergence, 31 g ai/ha; scale of 0 to 100, 0 is no effect, 100 is complete control
Readout Name: Plant response rating, Ryegrass, Italian
API doc: respond with a numeric literal and nothing else, no unit.

INSERT INTO measurements (compound, assayed_system, readout_name, recorded_number) VALUES
  ('Cc1nn(-c2ccc(F)cc2F)nc1Oc1ccnc(C(F)(F)F)c1 [Compound 146]', 'ryegrass, Italian (Italian ryegrass, Lolium multiflorum)', 'Plant response rating, Ryegrass, Italian', 0),
  ('FCc1nn(-c2ccc(F)cc2)nc1Oc1ccnc(C(F)(F)F)c1 [Compound 160]', 'ryegrass, Italian (Italian ryegrass, Lolium multiflorum)', 'Plant response rating, Ryegrass, Italian', 15),
  ('CCc1nn(-c2ccc(F)cc2)nc1Cc1ccnc(C(F)(F)F)c1 [Compound 154]', 'ryegrass, Italian (Italian ryegrass, Lolium multiflorum)', 'Plant response rating, Ryegrass, Italian', 10),
  ('COc1nn(-c2ccc(C(F)(F)F)cc2)nc1Cc1ccnc(C(F)(F)F)c1 [Compound 15]', 'ryegrass, Italian (Italian ryegrass, Lolium multiflorum)', 'Plant response rating, Ryegrass, Italian', 40);

Please examine the following record next.
Fill in: Plant response rating, Ryegrass, Italian of Fc1ccc(-n2nc(Cc3ccnc(C(F)(F)F)c3)c(OC(F)F)n2)cc1 [Compound 25] is ___
5

====

Entries and their Plant response rating, Johnsongrass values follow.
System: johnsongrass (Sorghum halepense)
Assay: Test C pre-/postemergence: johnsongrass
Format: in vivo
Conditions: Preemergence, 31 g ai/ha; scale 0 (no effect) to 100 (complete control)
Please state the value as a number alone, without comment.

// below: answered molecules
INSERT INTO results (given_smiles, assayed_system, recorded_number) VALUES
  ('CCCc1nn(-c2ccc(C(F)(F)F)cc2)nc1Oc1ccnc(C(F)(F)F)c1', 'johnsongrass (Sorghum halepense)', 50),
  ('CCCc1nn(-c2ccc(F)cc2F)nc1Oc1ccnc(C(F)(F)F)c1', 'johnsongrass (Sorghum halepense)', 5),
  ('CCOc1nn(-c2ccc(C(F)(F)F)cc2)nc1Cc1ccnc(C(F)(F)F)c1', 'johnsongrass (Sorghum halepense)', 5);

API: the following record is the query input.
What does the data say about its Plant response rating, Johnsongrass? Entry: CCc1nn(-c2ccc(F)c(F)c2)nc1Oc1ccnc(C(F)(F)F)c1
0

====

Form field: Plant response rating, Canarygrass (one value per entry).
System: canarygrass (Phalaris minor)
Test: Test D pre-/postemergence: canarygrass
Type: in vivo
Settings: Postemergence; 16 g ai/ha; scale 0 to 100
Note: the reply should be a number with no unit written.

INSERT INTO results (given_smiles, assayed_system, readout_name, recorded_number) VALUES
  ('COc1nn(-c2ccc(C(F)(F)F)cc2)nc1Cc1ccnc(C(F)F)c1', 'canarygrass (Phalaris minor)', 'Plant response rating, Canarygrass', 10),
  ('Cc1nn(-c2ccc(C(F)(F)F)cn2)nc1Oc1ccnc(C(F)(F)F)c1', 'canarygrass (Phalaris minor)', 'Plant response rating, Canarygrass', 10),
  ('CCc1nn(-c2ccc(C(F)(F)F)cc2)nc1Cc1ccnc(C(F)(F)F)c1', 'canarygrass (Phalaris minor)', 'Plant response rating, Canarygrass', 20),
  ('Cc1nn(-c2ccc(C(F)(F)F)c(F)c2)nc1Oc1ccnc(C(F)(F)F)c1', 'canarygrass (Phalaris minor)', 'Plant response rating, Canarygrass', 10);

Turning to the following compound.
For the compound shown here, Cc1nn(-c2ccc(C(F)(F)F)cn2)nc1Cc1cccc(C(F)(F)F)c1 , give the reported Plant response rating, Canarygrass.
5

====

Test system: foxtail, giant (giant foxtail, Setaria faberii)
Assay: Test A pre-/postemergence: foxtail, giant
Format: in vivo
Settings: Preemergence, 500 g ai/ha; 0 to 100 scale (0 no effect, 100 complete control)
Readout Name: Plant response rating, Foxtail, Giant
Quick one: just the number, no unit, thanks!

Recorded results for 6 compounds are shown here.
INSERT INTO results (compound, readout_name, recorded_number) VALUES
  ('Cc1nn(-c2ccc(F)cc2F)nc1Oc1ccnc(C(F)(F)F)c1 [Compound 146]', 'Plant response rating, Foxtail, Giant', 100),
  ('CCCc1nn(-c2ccc(F)c(F)c2)nc1Oc1ccnc(C(F)(F)F)c1 [Compound 172]', 'Plant response rating, Foxtail, Giant', 100),
  ('FC(F)(F)c1cccc(-n2nc(Oc3ccnc(C(F)(F)F)c3)c(C3CC3)n2)c1 [Compound 199]', 'Plant response rating, Foxtail, Giant', 50),
  ('CCOCc1nn(-c2ccc(F)cc2)nc1Oc1ccnc(C(F)(F)F)c1 [Compound 163]', 'Plant response rating, Foxtail, Giant', 100),
  ('CCc1nn(-c2ccc(F)c(F)c2)nc1Oc1ccnc(C(F)(F)F)c1 [Compound 171]', 'Plant response rating, Foxtail, Giant', 100),
  ('FC(F)(F)c1cccc(-n2nc(Oc3ccnc(C(F)(F)F)c3)c(C3CC3)n2)c1 [Compound 200]', 'Plant response rating, Foxtail, Giant', 100);

What Plant response rating, Foxtail, Giant value was documented for this compound, COc1nn(-c2ccc(C(F)(F)F)cc2)nc1Cc1ccnc(C(F)F)c1 [Compound 138] ?
100

Returns the measured Plant response rating, Foxtail, Giant for the input compound. Input: Cc1nn(-c2ccnc(Cl)c2)nc1Cc1ccnc(C(F)(F)F)c1 [Compound 141]
100

Item under review: Cc1cc(Oc2nn(-c3ccc(F)cc3)nc2C)ccn1 [Compound 135] . Reported Plant response rating, Foxtail, Giant?
0

Any idea what Plant response rating, Foxtail, Giant was measured for Oc1nn(-c2ccc(C(F)(F)F)cc2)nc1Cc1ccnc(C(F)(F)F)c1 [Compound 198] ?
0

====

Listed here are molecules together with their documented Plant response rating, Kochia.
Tested on: kochia (Kochia scoparia)
Assay: Test F pre-/postemergence: kochia
Assay type: in vivo
Conditions: Preemergence; 250 g ai/ha; scale 0 to 100
From the text: […] Treated plants and controls were maintained in a greenhouse for 14 to 21 days, after which time all species were compared to controls and visually evaluated. […]
Lab note: jot the number down without any unit.

Completed entries (count: 3):
INSERT INTO results (molecule, recorded_number) VALUES
  ('CCc1nn(-c2ccc(C(F)(F)F)cc2)nc1Cc1ccnc(C(F)(F)F)c1 [Compound 155]', 100),
  ('Cc1nn(-c2ccc(F)cc2F)nc1Oc1ccnc(C(F)(F)F)c1 [Compound 146]', 98),
  ('COc1nn(-c2cccc(F)c2)nc1Cc1ccnc(C(F)(F)F)c1 [Compound 139]', 98);

As a next step, examine the molecule that follows.
Suppose we examine the molecule CCc1nn(-c2ccc(F)c(F)c2)nc1Oc1ccnc(C(F)(F)F)c1 [Compound 171] ; what Plant response rating, Kochia value has been reported?
98

====

The entries below are paired with their reported Plant response rating, Cupgrass, Woolly.
System: woolly cupgrass (Eriochloa villosa)
Test: Test C pre-/postemergence: woolly cupgrass
Format: in vivo
Conditions: Preemergence, 250 g ai/ha; scale 0 to 100, 0 no effect, 100 complete control
// no unit, no text: just the number

Which measured Plant response rating, Cupgrass, Woolly belongs to Cc1nn(-c2ccc(C(F)(F)F)cc2)nc1Oc1ccnc(C(F)(F)F)c1 , tested on woolly cupgrass (Eriochloa villosa)?
98

Observed Plant response rating, Cupgrass, Woolly on woolly cupgrass (Eriochloa villosa) for Fc1ccc(-n2nc(Cc3ccnc(C(F)(F)F)c3)c(OC(F)F)n2)cc1 , please.
98

I'm curious: which Plant response rating, Cupgrass, Woolly was measured for COc1nn(-c2cccc(F)c2)nc1Cc1ccnc(C(F)(F)F)c1 tested on woolly cupgrass (Eriochloa villosa)?
90

Form entry - test system: woolly cupgrass (Eriochloa villosa); read-out: Plant response rating, Cupgrass, Woolly; compound: Cc1nn(-c2ccc(C(F)(F)F)cn2)nc1Oc1ccnc(C(F)(F)F)c1
100

Param readout = Plant response rating, Cupgrass, Woolly; param system = woolly cupgrass (Eriochloa villosa); param query = Cc1nn(-c2ccc(F)cc2F)nc1Oc1ccnc(C(F)(F)F)c1 ; response: value
100
